system: DMPK2; construct: gene CDC42BPG; conditions: concentration: 1 μM, replicates: in singlicate; n = 1;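 also: KINOMEscan kinase panel screen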
%Inh strictly less than 20% = 1.0. Otherwise 0.0.

[ask] Hello, is %Inh of the following molecule strictly smaller than 20%? O=c1cc(N2CCOCC2)nc2n(Cc3cccc4ccccc34)ccn12
[reply] 1.0

[ask] Then this molecule: O=C(NCCCN1CCOCC1)c1cccc(Nc2nccc(Nc3ccc(Oc4ccccc4)cc3)n2)c1
[reply] 1.0

[ask] Can you check CC(=O)Nc1ccc(COc2ccc(Nc3ccnc4cc(-c5ccccn5)ccc34)cc2)cc1.Cl next?
[reply] 1.0

[ask] Would you kindly repeat that for Cc1cn2c(=O)cc(N3CCOCC3)nc2n1Cc1cccc(Cl)c1Cl ?
[reply] 1.0

[ask] Request: Cn1cc(-c2ccc3c(c2)CCN3C(=O)Cc2ccccc2Cl)c2c(N)ncnc21
[reply] 0.0

[ask] Check NS(=O)(=O)c1cccc(-c2ccc3nccc(-c4cccc(S(N)(=O)=O)c4)c3c2)c1 too.
[reply] 1.0

[ask] Next molecule up: Cc1ccc(NC(=O)c2ccnc(N3CCN(C)CC3)c2)cc1-c1ccc(C(=O)NCC2CC2)cc1
[reply] 1.0

[ask] Continue with CN(C(=O)c1ccc(-c2cc(-c3c[nH]nc3-c3ccccn3)ccn2)cc1)C1CCOCC1
[reply] 1.0

[ask] Now the molecule CN1c2ccc(NCc3ccc(F)cc3)cc2-c2c(cnn2C)S1(=O)=O
[reply] 1.0

[ask] And what about the molecule Cc1nnc(-c2ccc(C)c(-c3ccc(C(=O)Nc4ccc(NS(C)(=O)=O)cc4)cc3)c2)o1 ?
[reply] 1.0

[ask] Fc1ccc(-c2ncn(CCCN3CCOCC3)c2-c2cccnc2)cc1 , same question.
[reply] 1.0

[ask] Also check CSc1ccc(-c2cc3ncnc(SCC(=O)O)c3s2)cc1
[reply] 1.0

[ask] Then NCC(NC(=O)c1cc(-c2cn[nH]c2)c(-c2ccnc3[nH]ccc23)s1)c1ccccc1.O=C(O)C(F)(F)F.O=C(O)C(F)(F)F (stereo not shown) ?
[reply] 0.0

====

system: MERTK; settings: concentration: 1 μM, replicates: in singlicate; n = 1
For each record, write down the corresponding %Inh.
Report the figure in % without appending any unit label.

[ask] Query %Inh on MERTK for Cc1nnc(-c2ccc3ncc(-c4ccc(S(C)=O)cc4)n3c2)o1 (stereo not drawn)
[reply] 0

[ask] Param item: COc1ccc(Nc2nccc(N3CCC(NC(=O)Nc4cccc(C(C)=O)c4)C3)n2)cc1 (stereo not drawn)
[reply] 35

[ask] Would you kindly repeat that for Cc1c2ccc(N(C)c3ccnc(Nc4cccc(S(N)(=O)=O)c4)n3)cc2nn1Cc1ccccc1.Cl.Cl ?
[reply] 70

[ask] Next record, please: COc1cc2c(cc1OC[C@@H](O)CO)ncc1c3ccc(C#N)cc3[nH]c21
[reply] 0

[ask] // query: CCc1nc(-c2cccc(C)c2)c(-c2ccnc(NCc3ccccc3)c2)s1
[reply] 0

[ask] Repeat with Cc1nnc(-c2ccc3occ(-c4ccc(C(C)O)cc4)c3c2)o1 (stereo not drawn)
[reply] 3

[ask] Cool, now COc1ccc(Nc2ncc(C#N)c(Nc3ccccc3C(N)=O)n2)cc1N1CCN(C)CC1.Cl
[reply] 100

[ask] Also, N#Cc1ccc(-c2cc(-c3c[nH]nc3-c3ccccn3)ccn2)cc1 please.
[reply] 15

[ask] Subsequent entry: c1ccc(-c2n[nH]cc2-c2ccnc3ccccc23)nc1
[reply] 34

[ask] Now the molecule Cn1ccc2ncnc(Oc3ccc(NC(=O)Nc4ccncc4)c(Cl)c3)c21
[reply] 0

[ask] Try the molecule Cn1cc(-c2ccc3c(c2)CCN3C(=O)Cc2ccccc2Cl)c2c(N)ncnc21
[reply] 93.2

[ask] O=C(NOCC1CC1)c1ccc(F)c(F)c1Nc1ccc(I)cc1Cl ?
[reply] 0

[ask] Next up: O=c1cc(N2CCOCC2)nc2n(Cc3cccc(Cl)c3Cl)c(C3CC3)nn12
[reply] 34

[ask] Entry Cc1ccc(C(=O)NCC(N)=O)cc1-n1c(C)cc(OCc2ccc(F)cc2F)c(Br)c1=O please
[reply] 3

[ask] And C[C@@H](Oc1cc(-n2cnc3ccc(NC(=O)NC(C)(C)C)cc32)sc1C(N)=O)c1ccccc1Cl ?
[reply] 8

[ask] Would you mind doing c1ccc(-c2cc(-c3c[nH]nc3-c3ccccn3)ccn2)cc1 as well?
[reply] 0

[ask] Record: Nc1nccc(-c2c(-c3ccc(F)cc3)ncn2C2CCN(CC(F)(F)F)CC2)n1
[reply] 9

[ask] What do you have for CN(C(=O)c1ccc(-c2cc(-c3c[nH]nc3-c3ccccn3)ccn2)cc1)C1CCOCC1 ?
[reply] 0

[ask] Thanks! And COc1cc2ncn(-c3cc(OCc4sccc4Cl)c(C(N)=O)s3)c2cc1OC ?
[reply] 23

[ask] And the next one, O=C(NCCNc1ccnc(Nc2ccc(F)cc2)n1)c1cc2ccccc2s1 ?
[reply] 0

[ask] Another molecule to check: CN1c2ccc(CNc3ccc(F)cc3)cc2-c2c(cnn2C)S1(=O)=O
[reply] 0

[ask] Same question, Cc1ccc(NC(=O)c2ccnc(N3CCN(C)CC3)c2)cc1-c1ccc(C(=O)NCC2CC2)cc1 this time
[reply] 0

[ask] Please answer likewise for NS(=O)(=O)c1cccc(-c2ccc3ncc(N4CCOCC4)nc3c2)c1
[reply] 9

[ask] What do you have for NCC(NC(=O)c1cc(-c2cn[nH]c2)c(-c2ccnc3[nH]ccc23)s1)c1ccccc1.O=C(O)C(F)(F)F.O=C(O)C(F)(F)F (stereo not drawn) ?
[reply] 0

[ask] Another molecule to check: COC(=O)Nc1nc2cc(Oc3ccc(NC(=O)Nc4cc(F)ccc4F)cc3)ccc2[nH]1.Cl
[reply] 90.8

[ask] Now this one: O=c1cc(N2CCOCC2)nc2n(Cc3cccc(C(F)(F)F)c3)ccn12
[reply] 0

[ask] Param item: Cc1nnc(-c2ccc(C)c(-c3ccc(C(=O)Nc4ccc(NS(C)(=O)=O)cc4)cc3)c2)o1
[reply] 0

====

tested on: PRKCH; settings: concentration: 1 μM, replicates: in singlicate; n = 1
OBSERVED PROPERTY: %Inh (%)
The answer is to be given in %; state only the numeric part.

[ask] I am curious: what %Inh value has been reported for O=C(NOCC1CC1)c1ccc(F)c(F)c1Nc1ccc(I)cc1Cl ?
[reply] 0

[ask] Another: O=c1cc(N2CCOCC2)nc2n(Cc3cccc4ccccc34)ccn12
[reply] 0

[ask] Follow-up item: O=C(Nc1n[nH]c2cc(-c3cccc(F)c3)ccc12)C1CC1
[reply] 8

[ask] Now the same for Cc1ccc(NC(=O)c2ccnc(N3CCN(C)CC3)c2)cc1-c1ccc(C(=O)NCC2CC2)cc1
[reply] 0

====

tested on: BIKE; construct: gene BMP2K; conditions: concentration: 1 μM, replicates: in singlicate; n = 1
OBSERVED PROPERTY: %Inh

[ask] Recorded %Inh for Cc1nnc(-c2ccc3occ(-c4ccc(C(C)O)cc4)c3c2)o1 (stereo not drawn) , please?
[reply] 18%

[ask] Now this one: Cc1c2ccc(N(C)c3ccnc(Nc4cccc(S(N)(=O)=O)c4)n3)cc2nn1Cc1ccccc1.Cl.Cl
[reply] 0%

[ask] Repeat with CN1c2ccc(NCc3ccc(F)cc3)cc2-c2c(cnn2C)S1(=O)=O
[reply] 0%

[ask] Repeat with Cc1cccc(Cn2ccn3c(=O)cc(N4CCOCC4)nc23)c1
[reply] 15%

[ask] What would you report for COCCNC(=O)c1ccc(-c2cc(C(=O)NC3CC3)cc(F)c2C)cc1 ?
[reply] 7%

[ask] Moving on to O=C1Cc2cc(Nc3nc(NCc4cccc(S(=O)(=O)C(F)(F)F)c4)ncc3C(F)(F)F)ccc2N1
[reply] 0%

====

tested on: S6K1; conditions: concentration: 1 μM, replicates: in singlicate; n = 1
OBSERVED PROPERTY: %Inh (%)
Provide the reading as a plain figure in %.

[ask] Which %Inh value belongs to COc1ccc(Nc2ncc(C#N)c(Nc3ccccc3C(N)=O)n2)cc1N1CCN(C)CC1.Cl ?
[reply] 99.9

[ask] Also need Nc1nccc(-c2c(-c3ccc(F)cc3)ncn2C2CCN(CC(F)(F)F)CC2)n1 , thanks.
[reply] 0

[ask] Please do the same for COCCNC(=O)c1ccc(-c2cc(C(=O)NC3CC3)cc(F)c2C)cc1 as well.
[reply] 29

[ask] Then this molecule: Cc1cn2c(=O)cc(N3CCOCC3)nc2n1Cc1cccc(Cl)c1Cl
[reply] 3

[ask] What do we get for Cc1cccc(-c2nc(Nc3ccc4ncsc4c3)c3ccccc3n2)n1 ?
[reply] 0

[ask] Next: O=c1cc(N2CCOCC2)nc2n(Cc3cccc(C(F)(F)F)c3)ccn12
[reply] 0

====

Record form. Attribute: %Inh. Fill in for each entry.
tested on: ERN1; settings: concentration: 1 μM, replicates: in singlicate; n = 1
Please respond with the number in % and leave the unit unwritten.

[ask] // query %Inh value for entry CN1c2ccc(NCc3ccc(F)cc3)cc2-c2c(cnn2C)S1(=O)=O
[reply] 0

[ask] And what about the compound C[C@@H](Oc1cc(-n2cnc3ccc(NC(=O)NC(C)(C)C)cc32)sc1C(N)=O)c1ccccc1Cl [GSK346294] ?
[reply] 13

[ask] Now try CCc1nc(-c2cccc(C)c2)c(-c2ccnc(NCc3ccccc3)c2)s1 .
[reply] 16

The values you see were collected from paper PMC5540273.
